target: SARS-CoV-2 Spike S1 protein (SARS-CoV-2, UniProt P0DTC2 16-685)
readout name: kon (M⁻¹ s⁻¹)
Please state the figure in M⁻¹ s⁻¹; there is no need to write the unit.

Q: Could you share which kon value was measured for rabbit monoclonal antibody 9H1 against the SARS-CoV-2 S1 (antibody, V domains shown) VH: QSVEESGGRLVTPGTPLTLTCTVSGFSLSRYAMSWVRQAPGKGLEWIGIIVDSGHTAYASWAKGRFTISRTSTTVDLKMTSLTTEDTATYFCARETGGGAFYVFEFWGPGTVVTVSS VL: AQVLTQTPSSVSAAVGGTVTINCQASEDIYDNLVWYQQKPGQPPKLLIYDASTLAFGVSSRFRGSGSGTHFTLTMRDVQCDDAATYYCQGEFSCSSGDCTAFGGGTEVVVKG ?
Result: 325000

More entries:
Q: Could you share which kon value was measured for rabbit monoclonal antibody 7G5 against the SARS-CoV-2 S1 (antibody, V domains shown) VH: QEQLEESGGDLVKPGASLTLTCTASGFSFSSAYYMCWVRQAPGKGLEWIACIGVDSGGNSYYASWAKGRFTISTTSSTTVTLQMTSLTAADKATYFCTRSFSLWGPGTLVTISS VL: RKWLTQTASSVSAAVGGTVTISCQASQSVYNNDNLAWFQQRPGQPPKLLIYLASNLASGVPPRFSGSGSGTQFTLTISDVQCDDAATYYCLGGYDCSNADCHAFGGGTEVVVKG ?
Result: 122000

Q: Could you share which kon value was measured for rabbit monoclonal antibody 1H1 against the SARS-CoV-2 S1 (antibody, V domains shown) VH: QSLEESGGDLVKPGASLTLTCTASGFSFSSGYDMCWVRQAPGKGLEWIACIGTGSSGNIYYASWAKGRFTISKTSSTTVTLQMTSLTAADTATYFCARDDADYAGPDYFNLWGPGTLVTVSS VL: DIVMTQTPASVSEPVGGTVTIKCQASESISNWLAWYQQKPGQPPKLLIYAAFTLASGVPSRFKGSGSGTQFTLTINGVECADAATYYCQQTYSSRDVDNVFGGGTEVVVKG ?
Result: 133000

Q: Could you share which kon value was measured for rabbit monoclonal antibody 5E1 against the SARS-CoV-2 S1 (antibody, V domains shown) VH: QSVEESGGRLVTPGTPLTLTCTVSGIDLSSYAMGWVRQAPGKGLEYIGIIYISGLTYYASWAKGRFTISKTSTTVDLKIPSPTTEDTATYFCARGEYNSHSHYLLWGPGTLVTVSS VL: AYDMTQTPSSVSEPVGGTVSIKCQASQNIYSNLAWYQQKPGQRPKLLIYDASQLASGVPSRFKGSGSGTEYTLTISGVECADAATYYCQQGFESSDIFNVFGGGTEVVVKG ?
Result: 72300

Reference source: patent US20220056111A1
